B1: 3'-5' exoribonuclease 1, residues 65 to 114; numbered along this chain, Q8IV48 (parent)
chain: VYKEIAITNGCINRMSKEELRAKLSEFKLETRGVKDVLKKRLKNYYKKQK

# Variants of: B1
# procedureSummary: abundance fitness (aPCA) (normalised: wild type 0, dead -1); higher = more abundant; growth selection in yeast, the domain comes from the species named
# assayConditions: Homo sapiens
Recorded abundance fitness, one value per entry.

Challenge: Request the reported abundance fitness associated with VYKEIAITNGCINDMSKEELRAKLSEFKLETRGVKDVLKKRLKNYYKKQK [R14D]
Response given: -0.308

Challenge: abundance fitness lookup needed for VYKEIAITNGCINRMSKEELDAKLSEFKLETRGVKDVLKKRLKNYYKKQK [R21D] , thanks.
Response given: -0.844

Challenge: What value of measured abundance fitness is listed for VYKEIAITNGCINRMSKEELRAKLSEFKLETRGVFDVLKKRLKNYYKKQK [K35F] ?
Response given: -0.81

Further cases:
Challenge: Request the reported abundance fitness associated with VYKEIAITKGCINRMSKEELRAKLSEFKLETRGVKDVLKKRLKNYYKKQK [N9K]
Response given: 0.066

Challenge: Value lookup for abundance fitness; key = VYKEIAITNGCINRMSKNELRAKLSEFKLETRGVKDVLKKRLKNYYKKQK [E18N]
Response given: 0.047

Challenge: Dear colleague, I am looking for the recorded abundance fitness of the following variant: VYKEIAITNGCINRMSKEELRAKLSEFKLETRGVKDVLDKRLKNYYKKQK [K39D]
Response given: -0.967

Challenge: Record request: abundance fitness value, item VYKEIAITNGCINRMSKEELRAKLSEFKLETRAVKDVLKKRLKNYYKKQK [G33A]
Response given: -0.842

Challenge: Query (variant): VLKEIAITNGCINRMSKEELRAKLSEFKLETRGVKDVLKKRLKNYYKKQK [Y2L] ; field requested: abundance fitness
Response given: -0.052

Challenge: Endpoint output: abundance fitness of VYKEIAITNGCINRMSKEELRMKLSEFKLETRGVKDVLKKRLKNYYKKQK [A22M] . Value?
Response given: -0.047

Challenge: Recorded abundance fitness for VYKEIAIENGCINRMSKEELRAKLSEFKLETRGVKDVLKKRLKNYYKKQK [T8E] , please?
Response given: -0.24

Challenge: // query abundance fitness value for entry VYKCIAITNGCINRMSKEELRAKLSEFKLETRGVKDVLKKRLKNYYKKQK [E4C]
Response given: -0.161
